From: ChEMBL document CHEMBL1140045

Target: Vitamin D3 receptor (Homo sapiens, UniProt P11473)
Sequence (P11473 whole entry): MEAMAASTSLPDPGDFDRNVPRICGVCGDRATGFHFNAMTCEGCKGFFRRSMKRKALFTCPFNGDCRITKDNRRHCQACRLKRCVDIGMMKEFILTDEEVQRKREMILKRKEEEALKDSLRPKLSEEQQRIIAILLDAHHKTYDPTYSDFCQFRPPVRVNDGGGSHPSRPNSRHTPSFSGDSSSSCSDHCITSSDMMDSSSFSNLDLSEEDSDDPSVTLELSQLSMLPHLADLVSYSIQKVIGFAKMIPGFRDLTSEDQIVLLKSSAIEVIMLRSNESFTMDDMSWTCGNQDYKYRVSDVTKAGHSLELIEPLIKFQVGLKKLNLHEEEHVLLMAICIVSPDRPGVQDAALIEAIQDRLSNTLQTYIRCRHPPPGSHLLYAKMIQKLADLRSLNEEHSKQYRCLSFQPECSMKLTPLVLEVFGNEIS
Test: Antagonist activity at VDR expressed in COS7 cells assessed as inhibition of 1,25-Dihydroxyvitamin D3-induced response by transient transcription assay
PROPERTY NAME: IC50 (nM)
Numbers only; they are read as nM.

Quick one: IC50 for `C=C1[C@H](O)CC(=C/C=C2\CCC[C@]3(C)[C@@H]([C@@H](C)/C=C/C[C@@H](O)C45CC6CC(CC(C6)C4)C5)CC[C@@H]23)C[C@H]1O` ?
3

====

Quick reference: pEC50 of the listed items.
Molecular target: Vitamin D3 receptor (Homo sapiens)
Experiment: Agonist activity at VDR assessed as receptor transactivation by transient transcription assay
Field pEC50 (float): negative decimal logarithm of the concentration in molar.

STRUCTURE AS SMILES	PROPERTY NAME	OBS VALUE
C=C1[C@H](O)CC(=C/C=C2\CCC[C@]3(C)[C@@H]([C@@H](C)/C=C/C[C@@H](O)C45CC6CC(CC(C6)C4)C5)CC[C@@H]23)C[C@H]1O	pEC50	9.00
C=C1[C@H](O)CC(=C/C=C2\CCC[C@]3(C)[C@@H]([C@H](C)/C=C/[C@@H](O)C45CC6CC(CC(C6)C4)C5)CC[C@@H]23)C[C@H]1O	pEC50	10.70

Let's switch to this molecule now.
What value of pEC50 has been recorded for this entry: `C=C1[C@H](O)CC(=C/C=C2\CCC[C@]3(C)[C@@H]([C@@H](C)/C=C/C[C@@H](O)CC45CC6CC(CC(C6)C4)C5)CC[C@@H]23)C[C@H]1O`
7.62
